Recorded pIC50 by entry
# tgt: PD-L1 (Homo sapiens (Human))
# Sequence (Q9NZQ7 19-290): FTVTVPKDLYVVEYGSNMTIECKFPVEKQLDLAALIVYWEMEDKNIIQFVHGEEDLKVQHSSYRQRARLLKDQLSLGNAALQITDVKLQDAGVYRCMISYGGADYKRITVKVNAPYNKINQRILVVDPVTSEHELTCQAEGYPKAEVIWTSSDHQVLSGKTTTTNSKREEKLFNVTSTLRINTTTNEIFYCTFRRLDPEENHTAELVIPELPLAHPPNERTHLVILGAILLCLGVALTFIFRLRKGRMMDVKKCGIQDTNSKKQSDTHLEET
# testMethodNotes: PD-L1 surface levels on HEK293T STING reporter cells, high PD-L1
# Format: cell-based
# Experimental: To determine PD-L1 expression on HEK cells after treatment of PD-L1-small molecule conjugated STING agonists, cells were harvested at 20 hours post-treatment. Single cell suspensions were then stained with phycoerythrin-conjugated anti-PD-L1 antibody (BD Bioscience), and the PD-L1 expression were then analyzed by flow cytometry. Mean fluorescence intensity was used as the relative level of surface PD-L1 expression on cells (FIG. 1 and Table 6). […]
pIC50: −log10 of the molar value.

| structure | pIC50 |
| --- | --- |
| CCn1nc(C)cc1C(=O)Nc1nc2cc(C(N)=O)cc(OC)c2n1C/C=C/Cn1c(NC(=O)c2cc(C)nn2CC)nc2cc(C(N)=O)cc(OCCCNC(=O)[C@H](CC(=O)O)NC(=O)[C@H](CC(=O)O)NC(=O)[C@H](CCCNC(=N)N)NC(=O)[C@H](CC(=O)O)NC(=O)[C@H](CC(=O)O)NC(=O)[C@H](CC(=O)O)NC(=O)[C@H](CCCNC(=N)N)NC(=O)[C@H](CC(=O)O)NC(=O)CCCN3CCc4c(nc(C(=O)Nc5cccc(-c6cccc(NC(=O)c7nc8c(n7C)CCN(CCCC(=O)O)C8)c6Cl)c5Cl)n4C)C3)c21 | > 7.30 |
| CCn1nc(C)cc1C(=O)Nc1nc2cc(C(N)=O)cc(OC)c2n1C/C=C/Cn1c(NC(=O)c2cc(C)nn2CC)nc2cc(C(N)=O)cc(OCCCNC(=O)[C@@H](NC(=O)[C@H](CC(=O)O)NC(=O)[C@H](CC(=O)O)NC(=O)[C@H](CCCNC(=N)N)NC(=O)[C@H](CC(=O)O)NC(=O)CCCN3CCc4c(nc(C(=O)Nc5cccc(-c6cccc(NC(=O)c7nc8c(n7C)CCN(CCCC(=O)O)C8)c6Cl)c5Cl)n4C)C3)C(C)(C)C)c21 | > 7.30 |
| CCn1nc(C)cc1C(=O)Nc1nc2cc(C(N)=O)cc(OC)c2n1C/C=C/Cn1c(NC(=O)c2cc(C)nn2CC)nc2cc(C(N)=O)cc(OCCCNC(=O)[C@H](CC(=O)O)NC(=O)[C@H](CC(=O)O)NC(=O)[C@H](CC(=O)O)NC(=O)[C@H](CC(=O)O)NC(=O)[C@H](CC(=O)O)NC(=O)CCCN3CCc4c(nc(C(=O)Nc5cccc(-c6cccc(NC(=O)c7nc8c(n7C)CCN(CCCC(=O)O)C8)c6Cl)c5Cl)n4C)C3)c21 | > 7.30 |

Source listed as patent US11596692B1.
